Listing of entries alongside the reported pIC50.
Tested on: Proteasome
Assay: Inhibition of chymotrypsin-like activity of 20S proteasome
Format: subcellular
pIC50: −log10 of the molar value. Where a SMILES comes first, the peptide text is derived from it. [ ]: non-standard residue; d: D form. Nle = CCCC[C@H](N)C(=O)O

Sample records with pIC50:
IN: I would be grateful if you could share the reported pIC50 for COc1ccc2c(c1)C(CC(=O)N[C@@H](CC(C)C)C(=O)N[C@H](CC(C)C)C(=O)NC1C3CC4CC(C3)CC1C4)CC2=O (stereo not given in full) .
OUT: < 4.74

IN: I would be grateful if you could share the reported pIC50 for COc1ccc2c(c1)C(CC(=O)N[C@@H](CC(C)C)C(=O)N[C@H](CC(C)C)C(=O)NCC(N)=O)CC2=O (stereo not given in full) .
OUT: 6.70

IN: I would be grateful if you could share the reported pIC50 for COc1ccc2c(c1)C(CC(=O)N[C@@H](CC(C)C)C(=O)N[C@H](CC(C)C)C(=O)NC1CCc3ccccc31)CC2=O (stereo not given in full) .
OUT: 6.05

IN: I would be grateful if you could share the reported pIC50 for COc1ccc2c(c1)C(CC(=O)N[C@@H](CC(C)C)C(=O)N[C@H](CC(C)C)C(=O)NCc1ccc(OCc3ccccc3)cc1)CC2=O (stereo not given in full) .
OUT: 4.80

---
IN: I would be grateful if you could share the reported pIC50 for CCCC[C@@H](C=O)NC(=O)[C@H](CC(C)C)NC(=O)[C@H](CC(C)C)NC(C)=O (Ac-Leu-Leu-[Nle]-aldehyde) .
OUT: 6.82

IN: I would be grateful if you could share the reported pIC50 for COc1ccc2c(c1)C(CC(=O)N[C@@H](CC(C)C)C(=O)N[C@H](CC(C)C)C(=O)NCc1ccc([N+](=O)[O-])cc1)CC2=O (stereo not given in full) .
OUT: < 4.77

IN: I would be grateful if you could share the reported pIC50 for COc1ccc2c(c1)C(CC(=O)N[C@@H](CC(C)C)C(=O)N[C@H](CC(C)C)C(=O)NC(C)C)CC2=O (stereo not given in full) .
OUT: < 4.70

IN: I would be grateful if you could share the reported pIC50 for COc1ccc2c(c1)C(CC(=O)N[C@@H](CC(C)C)C(=O)N[C@H](CC(C)C)C(=O)NC(c1ccccc1)c1ccccc1)CC2=O (stereo not given in full) .
OUT: < 4.80

IN: I would be grateful if you could share the reported pIC50 for COc1ccc2c(c1)C(CC(=O)N[C@@H](CC(C)C)C(=O)N[C@H](CC(C)C)C(=O)N1CCOCC1)CC2=O (stereo not given in full) .
OUT: < 4.70

IN: I would be grateful if you could share the reported pIC50 for COc1ccc2c(c1)C(CC(=O)N[C@H](CC(C)C)C(=O)N[C@@H](C(N)=O)C(C)C)CC2=O (stereo not given in full) .
OUT: < 4.70

IN: I would be grateful if you could share the reported pIC50 for COc1ccc2c(c1)C(CC(=O)N[C@@H](CC(C)C)C(=O)N[C@H](CC(C)C)C(=O)NCC1CCCCC1)CC2=O (stereo not given in full) .
OUT: < 4.74

IN: I would be grateful if you could share the reported pIC50 for COc1ccc2c(c1)C(CC(=O)N[C@@H](CC(C)C)C(=O)N[C@H](CC(C)C)C(=O)NCCO)CC2=O (stereo not given in full) .
OUT: < 4.70

IN: I would be grateful if you could share the reported pIC50 for COc1ccc2c(c1)C(CC(=O)N[C@@H](CC(C)C)C(=O)N[C@H](CC(C)C)C(=O)NCc1c(F)c(F)c(F)c(F)c1F)CC2=O (stereo not given in full) .
OUT: < 4.80

IN: I would be grateful if you could share the reported pIC50 for COc1ccc2c(c1)C(CC(=O)N[C@@H](CC(C)C)C(=O)N[C@H](CC(C)C)C(=O)N(C)Cc1ccccc1)CC2=O (stereo not given in full) .
OUT: < 4.74

IN: I would be grateful if you could share the reported pIC50 for COc1ccc2c(c1)C(CC(=O)N[C@@H](CC(C)C)C(=O)N[C@H](CC(C)C)C(=O)NCc1occ3ccccc13)CC2=O (stereo not given in full) .
OUT: 5.06
